Data credit: PubChem BioAssay (NCI)

Test: NCI Yeast Anticancer Drug Screen. Data for the rad50 strain (AID 155);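 also: 0% = growth of vehicle-only cultures of the same strain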
Settings: S. cerevisiae rad50 strain growth inhibition; at 100.0 µM; hits give high values
Compounds without any hit were thinned out: in the full panel of roughly 79,000, 15% have a hit.
measured-property: growth inhibition (%)
API: value field is a number in %; no unit string.

**Query** Which measured growth inhibition value corresponds to Nc1ncnc2c1ncn2C1OC(CO)CC1O (stereo not given) ?
**Result** 91

**Query** Which measured growth inhibition value corresponds to COc1cc(O)c2c(c1O)C(=O)c1cc(C)ncc1C2=O ?
**Result** 86

**Query** Which measured growth inhibition value corresponds to CCCCCOC(=S)SC(=O)OCC ?
**Result** 95

**Query** Which measured growth inhibition value corresponds to CC(C)/C(Cl)=N\OC(=O)Nc1ccc(F)cc1F ?
**Result** 80

**Query** Which measured growth inhibition value corresponds to NC1CCCCC1N.Nc1c(N=Nc2ccc(-c3ccc(N=Nc4cc(S(=O)(=O)[O-])c5ccccc5c4N)cc3)cc2)cc(S(=O)(=O)[O-])c2ccccc12.[OH3+].[OH3+].[Pt+4] ?
**Result** 70

* * *

Assay: NCI Yeast Anticancer Drug Screen. Data for the rad50 strain (AID 155);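 also: 0% = growth of vehicle-only cultures of the same strain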
Conditions: S. cerevisiae rad50 strain growth inhibition; at 50.0 µM (retest, dose inferred, filed as 5.0)
About 79,000 compounds went through this panel and 15% of them were active in at least one assay; those are over-represented in the sample as a whole. Calls of active or inactive are those of the source. No stated cut-off is given here; in the data, active means growth inhibition above about 70%; inactive means the rest.
Can you answer with just one of these options? true (active), false (inactive)

Worked set:
COc1cccc2c1C(=O)c1c(O)c3c(c(O)c1C2=O)C[C@@](O)(C(C)=O)C[C@@H]3OC1CC(OC(C)=O)C(OC(C)=O)C(C)O1 (stereo not given in full) ... true
CCCCc1nnc(NS(=O)(=O)c2ccc(C)cc2)s1 ... true
CC(/C=C/c1ccccc1)=N\NC(N)=S ... false
Oc1ccc(O)c(Cc2ccccc2)c1 ... true
O=C(COC(=O)c1ccccc1)c1ccc(Br)cc1 ... true
NC(=O)c1c([N+](=O)[O-])cc(C(F)(F)F)cc1[N+](=O)[O-] ... false
COC(=O)C1=C(C(=O)OC)C(C(=O)OC)C(C(=O)OC)C(C(=O)OC)(C(=O)OC)C(C(=O)OC)=C1C(=O)OC (stereo not given) ... true
O=C(O)c1cc2ccc(Cl)cc2c(O)c1C1=CCCCC1 ... false

**Query** Would you mind telling me which call this test gave CCn1c(O)c(C=Nc2ccccc2)s/c1=N/Nc1nc(-c2ccccc2)cs1 ?
**Result** false

**Query** Would you mind telling me which call this test gave CC(C)CN(CC(C)C)C(=O)c1ccc(Cl)c(Cl)c1 ?
**Result** true

* * *

Experiment: NCI Yeast Anticancer Drug Screen. Data for the rad52 strain (AID 147);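 also: 0% = growth of vehicle-treated control cultures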
Conditions: S. cerevisiae rad52 mutant growth inhibition; at 1.2 µM; hits give high values
Protocol: Growth inhibition of yeast strains with defined genetic alterations is measured as a screen for potential anti-cancer activity. Selected strains with alterations in DNA damage repair or cell cycle control were exposed to compounds and growth inhibition was measured relative to vehicle treated controls. The strain used in this assay is rad52
About 79,000 compounds went through this panel and 15% of them were active in at least one assay; those are over-represented in the sample as a whole.
measured-property: growth inhibition (%)
API: value field is a number in %; no unit string.

In the examples that follow, each entry is paired with its recorded growth inhibition.
S=C1SCN(C2CCCCC2)CN1C1CCCCC1 ... -21
O=C1OC(C2=CC(=O)c3ccccc3C2=O)C(Cl)=C1Cl (centres undefined) ... 3
Cc1cc2c3ccccc3c3ccccc3c2nn1 ... 2
CCOC(=N)c1ccc(O)c(OC)c1 ... -1
OCC(CO)C(c1cccc2ccccc12)c1cccc2ccccc12 ... 3
CCN(CC)CCNc1ccc2ncn3c4cc(OC)c(OC)c(=O)c4c(O)c1c23 ... 15

**Query** Which measured growth inhibition value corresponds to Cc1cc(C)c(NC(=S)NC(=O)c2ccccc2)cc1C ?
**Result** -33

**Query** Which measured growth inhibition value corresponds to CCCCCCN(CCCCCC)CC(O)c1ccnc2ccc(OC)cc12 (centres undefined) ?
**Result** 0

**Query** Which measured growth inhibition value corresponds to Cc1c(C)c(C)c(CSC(=N)N)c(C)c1C ?
**Result** -23

**Query** Which measured growth inhibition value corresponds to C=C1CCC(O)C/C1=C/C=C1\CCCC2(C)C1CCC2C(C)CCCC(C)C (centres undefined) ?
**Result** -22

**Query** Which measured growth inhibition value corresponds to COc1ccc(C(=O)C(CN(C)C)CN(C)C)cc1 ?
**Result** -14

**Query** Which measured growth inhibition value corresponds to O=C(/C=C(/c1ccccc1)N1CCCCC1)c1ccccc1 ?
**Result** 0

* * *

This section presents molecules with their documented growth inhibition values.
Test: NCI Yeast Anticancer Drug Screen. Data for the sgs1 mgt1 strain (AID 161);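 also: 0% = growth of cultures given vehicle only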
Conditions: S. cerevisiae sgs1 mgt1 strain, at 5.0 µM (retest, dose inferred, filed as 0.5), hits give high values
This is part of a sample that, as a whole, favours compounds with a hit. Of some 79,000 tested, about 15% had one in any assay.
API: value field is a number in %; no unit string.

In the examples that follow, each entry is paired with its recorded growth inhibition.
O=[N+]([O-])c1cc(Cl)cnc1Br ... -50
O=C(NO)Nc1cc(Cl)cc(Cl)c1 ... 58
CCCCN(CCCC)CCC(O)c1cc2c(Cl)cc(Cl)cc2c2cc(C(F)(F)F)ccc12 (stereo unspecified) ... 56
NCCNCCNc1ccc(NCCNCCN)c2c1C(=O)c1c(O)ccc(O)c1C2=O ... -6
CC1(C)CC(=O)C(/C=N/c2nc(-c3ccccc3)cs2)=C(O)C1 ... -5
O=C(Oc1ccc2c(c1)CN(Cc1ccccc1)CO2)c1ccccc1 ... 19

**Query** Which measured growth inhibition value corresponds to CN(C)Cc1cc(N=Nc2ccc(Cl)cc2)ccc1OC(=O)c1ccccc1 ?
**Result** 38

**Query** Which measured growth inhibition value corresponds to CN(C)CCNc1ccc2ncnc3c2c1C(=O)c1ccccc1-3 ?
**Result** -21

**Query** Which measured growth inhibition value corresponds to CC(=O)SC(C[N+](=O)[O-])c1ccccc1 (stereo unspecified) ?
**Result** -7

**Query** Which measured growth inhibition value corresponds to O=C1NC(SSC2=NNC3(C(=O)N2)c2ccccc2-c2ccccc23)=NNC12c1ccccc1-c1ccccc12 ?
**Result** -7

**Query** Which measured growth inhibition value corresponds to O=c1ccc(=O)n(-c2ccccc2)[nH]1 ?
**Result** 1

* * *

Experiment: NCI Yeast Anticancer Drug Screen. Data for the rad14 strain (AID 159);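 also: 0% = growth of vehicle-treated control cultures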
Conditions: S. cerevisiae rad14 strain growth inhibition; at 100.0 µM; hits give high values
The panel holds about 79,000 compounds, 15% with a hit somewhere; the sample as a whole holds those more often.
This section presents compounds with their documented growth inhibition values.
API: value field is a number in %; no unit string.

Cc1cccc(C(C)(C)C)c1NC(=O)C(C#N)C1=C(Cl)C(=O)c2ccccc2C1=O (configuration not stated) ... 97

**Query** Which measured growth inhibition value corresponds to CCN(CC)CCN(C)CCc1ccc(Br)cc1 ?
**Result** 97

**Query** Which measured growth inhibition value corresponds to CC(=O)ON=C1C=CC(=C(C#N)c2ccc(Cl)cc2)C=C1 ?
**Result** 98

**Query** Which measured growth inhibition value corresponds to COC(=O)CC1(O)C(/C=C/c2ccccc2)C(C(=O)OC)C(=O)C(C(=O)OC)C1C(=O)OC (configuration not stated) ?
**Result** 2

**Query** Which measured growth inhibition value corresponds to CN(C)c1ccc(C2CC(C)(O)Oc3cc4c(cc32)OCO4)cc1 (configuration not stated) ?
**Result** 58

**Query** Which measured growth inhibition value corresponds to COC(=O)C1(C)CCc2c(ccc3ccccc23)C1=O (configuration not stated) ?
**Result** 19

**Query** Which measured growth inhibition value corresponds to CCCCCCCCCCCCCCCCOP(=O)(O)OCC(N)C(=O)O (configuration not stated) ?
**Result** 97

**Query** Which measured growth inhibition value corresponds to Cc1cc(N(CCOS(C)(=O)=O)CCOS(C)(=O)=O)ccc1C=Nc1ccc(-c2csc(-c3ccccc3)n2)c(Cl)c1 ?
**Result** 91

**Query** Which measured growth inhibition value corresponds to Cc1cccc(/C=N/NC(=S)N2CCCC2)n1 ?
**Result** 98

**Query** Which measured growth inhibition value corresponds to CCOC(=O)C(C(=O)OCC)=P(c1ccccc1)(c1ccccc1)c1ccccc1 ?
**Result** 93

**Query** Which measured growth inhibition value corresponds to CC(C)(C)[Si](C)(C)OCC1CCC(n2cnc3c(NC(=O)c4ccccc4)ncnc32)O1 (configuration not stated) ?
**Result** 2

**Query** Which measured growth inhibition value corresponds to CCc1ccc2c(c1)N(CC(C)CN(C)C)c1ccccc1S2 (configuration not stated) ?
**Result** 96

**Query** Which measured growth inhibition value corresponds to CC(/C=C/c1ccccc1)=N\NC(N)=S ?
**Result** 45

**Query** Which measured growth inhibition value corresponds to COc1cc(/C=C2\NC(=O)N(/C=C3\C(=O)Oc4ccccc4C3=O)C2=O)ccc1O ?
**Result** 93

**Query** Which measured growth inhibition value corresponds to S=C1SCN(C2CCCCC2)CN1C1CCCCC1 ?
**Result** 45

**Query** Which measured growth inhibition value corresponds to CCN(CC)Cc1cc(Nc2c3ccccc3nc3c2[nH]c2ccccc23)cc(CN(CC)CC)c1O ?
**Result** 8

**Query** Which measured growth inhibition value corresponds to C/C(=N\Nc1ccc([N+](=O)[O-])cc1[N+](=O)[O-])c1sc(-n2nc(-c3ccccc3)cc2-c2ccccc2)nc1C ?
**Result** -6
